# ASSAY: Neurotoxicity in ip dosed C57BL/6 mouse after 30 mins by rotarod test
# Format: toxicity, organism-based, C57B/6
# EXPERIMENTAL_SETUP: in vivo
ASSAY_ENDPOINT: TD50 at 0.5 h

Incoming: Which TD50 at 0.5 h value is on record for "CCCCCCCOc1ccc2c(c1)CCc1nn(C(=O)CC)c(=O)n1-2" ?
Outgoing: 318 mg/kg

----------
# ASSAY: Protective index, ratio of TD50 for neurotoxicity in ip dosed Swiss mouse to ED50 for anticonvulsant activity in ip dosed Swiss mouse
# Assay type: toxicity, organism-based
# EXPERIMENTAL_SETUP: in vivo, read-out: Ratio TD50/ED50
ASSAY_ENDPOINT: selectivity ratio
Number, no unit, nothing else.

Incoming: Which selectivity ratio value is on record for "Fc1ccc(-n2c(-c3cccc(Cl)c3)n[nH]c2=S)cc1" ?
Outgoing: 3.9

----------
# ASSAY: Protective index, ratio of TD50 for neurotoxicity in ip dosed Swiss mouse by rotarod test to ED50 for anticonvulsant activity in ip dosed Swiss mouse by MES test
# Type: toxicity, organism-based
# EXPERIMENTAL_SETUP: in vivo, read-out: Ratio TD50/ED50
ASSAY_ENDPOINT: selectivity ratio
Number, no unit, nothing else.

SUBSTANCE_SMILES	OBSERVED
CCCCCCCOc1nn2cnnc2c2ccccc12	8

For the next question, use this molecule.
Incoming: Which selectivity ratio value is on record for "Clc1ccc(Oc2nn3cnnc3c3ccccc23)cc1" ?
Outgoing: 5.2
